Provenance of the data: the supplement of paper PMC3545927

Study target: furin, P09958;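 also: purified furin at 1:10 enzyme:substrate in 50 mM HEPES pH 7.5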
Sequence (P09958 whole entry): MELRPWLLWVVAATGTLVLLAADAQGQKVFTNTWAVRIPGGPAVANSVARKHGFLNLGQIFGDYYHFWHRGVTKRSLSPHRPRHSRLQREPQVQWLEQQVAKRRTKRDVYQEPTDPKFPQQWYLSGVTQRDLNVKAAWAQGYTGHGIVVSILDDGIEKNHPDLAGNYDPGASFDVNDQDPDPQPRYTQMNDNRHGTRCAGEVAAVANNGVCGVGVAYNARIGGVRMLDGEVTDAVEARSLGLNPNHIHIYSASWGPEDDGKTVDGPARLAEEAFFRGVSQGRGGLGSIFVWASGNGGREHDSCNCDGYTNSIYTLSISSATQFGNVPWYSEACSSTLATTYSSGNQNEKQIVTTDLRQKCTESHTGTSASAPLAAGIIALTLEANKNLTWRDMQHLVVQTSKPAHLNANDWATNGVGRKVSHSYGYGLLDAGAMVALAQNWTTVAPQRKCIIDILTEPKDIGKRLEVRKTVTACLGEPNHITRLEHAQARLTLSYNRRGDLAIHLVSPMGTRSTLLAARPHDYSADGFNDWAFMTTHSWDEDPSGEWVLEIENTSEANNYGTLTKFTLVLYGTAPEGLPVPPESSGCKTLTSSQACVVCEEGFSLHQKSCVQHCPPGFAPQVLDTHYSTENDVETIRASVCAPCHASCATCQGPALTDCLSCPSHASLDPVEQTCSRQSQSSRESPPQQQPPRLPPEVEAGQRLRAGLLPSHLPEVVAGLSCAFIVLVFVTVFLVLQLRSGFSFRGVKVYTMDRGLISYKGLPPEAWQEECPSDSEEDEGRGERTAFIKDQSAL
Experiment: furin cleavage Z-score vs untreated control; higher = more cleavage, active = 3.5 or more, inactive = 1 or less, 8 variable residues between constant flanks
Run parameters: 7.5 min
Some of the results follow. No count for the full screen is at hand.
Please answer using one outcome listed in 1.0 = active, 0.0 = inactive

| Residue codes | Class name |
| --- | --- |
| CAMNTPGLPVAGNASASA [HC932] | 0.0 |
| CAKQRRIVGIAGNASASA [FS-2869] | 0.0 |
| CAGLLRFCALAGNASASA [HC619] | 0.0 |
| CAEVPCHRPSAGNASASA [HC2312] | 0.0 |
| CAEFERRWRSAGNASASA [FS-230] | 0.0 |

(Q) Entry CAEISRKRRSAGNASASA [FS-649] : call = ?
(A) 1.0

(Q) Entry CARMCRVAGWAGNASASA [FS-2046] : call = ?
(A) 0.0

(Q) Entry CAGERRKRRSAGNASASA [FS-425] : call = ?
(A) 1.0

(Q) Entry CAVVCCSMCYAGNASASA [HC2080] : call = ?
(A) 0.0
